# assay-info: Cytotoxicity against Homo sapiens (human) FL cells assessed as cell viability at 10^-4 M after 24 hr by trypan blue exclusion assay relative to control
# Format: cell-based
# condition: read-out: Activity
Each record is given True if its reported viability at 24 h, 100 µM is strictly below 80%. Records at or above 80% are given False.

Worked cases, answers included:
| query-smiles | class-label |
| --- | --- |
| CCOC(=O)N1c2ccccc2N(C(=O)OCC)C1CC(=O)/C=C/c1ccccc1 | False |
| CCOC(=O)N1c2cc(C)c(C)cc2N(C(=O)OCC)C1CC(=O)c1ccccc1 | True |
| CCOC(=O)N1c2cc(C)c(C)cc2N(C(=O)OCC)C1CC(=O)c1ccc(OC)cc1 | True |
| CCOC(=O)N1c2ccccc2N(C(=O)OCC)C1CC(=O)Cc1ccccc1 | True |

viability at 24 h, 100 µM under 80%? Item: CCOC(=O)N1c2cc(C)c(C)cc2N(C(=O)OCC)C1CC(=O)/C=C/c1ccccc1
False
